# Tested on: 945468-187-T-J2-PDC spheroids viability;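 note: spheroids exposed to compounds for seven days before reading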
# protocol.text: Anticancer human tumor 945468-187-T-J2-PDC patient-derived rectal carcinoma cell line growth inhibition [PI3K]
# details: second compound 1 µM; first compound 0.03 µM; stronger effect = lower value; spheroids with HUVEC and MSC
quantity.name: viability, T/C (%)
Express your answer in %, writing the number without its unit.

1) Cn1cnc2c(F)c(Nc3ccc(Br)cc3Cl)c(C(=O)NOCCO)cc21 + CC(Nc1ccc2c(c1)OCCn1cc(N3C(=O)OCC3C(F)F)nc1-2)C(N)=O	72
2) Cn1cnc2c(F)c(Nc3ccc(Br)cc3Cl)c(C(=O)NOCCO)cc21 + CC(Nc1ncnc2nc[nH]c12)c1cc2cccc(Cl)c2c(=O)n1-c1ccccc1	106
3) Cn1cnc2c(F)c(Nc3ccc(Br)cc3Cl)c(C(=O)NOCCO)cc21 + COc1c(OCCCN2CCOCC2)ccc2c3n(c(=NC(=O)c4cnc(N)nc4)nc12)CCN3	18.6

Switching to the query record.
Input: Can you look up the measured viability, T/C of Cn1cnc2c(F)c(Nc3ccc(Br)cc3Cl)c(C(=O)NOCCO)cc21 + Cc1nc(NC(=O)N2CCCC2C(N)=O)sc1-c1ccnc(C(C)(C)C(F)(F)F)c1 for me?
Output: 114
